These data points were gathered from ChEMBL document CHEMBL3758120.

target: UniProt P11388; experiment: Inhibition of purified human topoisomerase 2-mediated relaxation of supercoiled pBR322 DNA at 50 uM incubated for 30 mins by agarose gel electrophoresis
Calls of active or inactive are those of the source. No cut-off for these calls is given here.
Observation Type: inhibition

Before answering, review these 4 worked examples.
# Compound Structure String, Observation Type, Assay Result
rows = [
    ("CN(C)CCn1c(N)c(-c2nc3cc(Cl)ccc3[nH]2)c2nc(C#N)c(C#N)nc21", "inhibition", "inactive"),
    ("N#Cc1nc2c(-c3nc4ccccc4[nH]3)c(N)n(CCCN3CCCCC3)c2nc1C#N", "inhibition", "inactive"),
    ("CCn1c(N)c(-c2nc3ccccc3[nH]2)c2nc(C#N)c(C#N)nc21", "inhibition", "inactive"),
    ("COc1ccc(CCn2c(N)c(-c3nc4ccccc4[nH]3)c3nc(C#N)c(C#N)nc32)cc1", "inhibition", "inactive"),
]

Now turn to the next compound.
Using the record for "N#Cc1nc2c(-c3nc4ccccc4[nH]3)c(N)n(CCN3CCCC3)c2nc1C#N" , report its inhibition. inactive

* * *

assay: Antiproliferative activity against human MDA-MB-201 cells after 48 hrs by MTT assay; format: functional, cell-based
pIC50: −log10 of the molar value.
Would you mind labelling by pIC50? At or over 5 is T, under is F.

Textbook exercise: given the entry "CCN(CC)CCn1c(N)c(-c2nc3ccccc3n2C)c2nc(C#N)c(C#N)nc21" , state whether its pIC50 is greater than or equal to 5. F

Textbook exercise: given the entry "CCN(CC)CCCn1c(N)c(-c2nc3ccccc3[nH]2)c2nc(C#N)c(C#N)nc21" , state whether its pIC50 is greater than or equal to 5. F

Textbook exercise: given the entry "CN1CCN(CCCn2c(N)c(-c3nc4ccccc4[nH]3)c3nc(C#N)c(C#N)nc32)CC1" , state whether its pIC50 is greater than or equal to 5. T

Textbook exercise: given the entry "CN(C)CCCCn1c(N)c(-c2nc3ccccc3[nH]2)c2nc(C#N)c(C#N)nc21" , state whether its pIC50 is greater than or equal to 5. T

Textbook exercise: given the entry "N#Cc1nc2c(-c3nc4ccccc4[nH]3)c(N)n(CCc3ccccc3)c2nc1C#N" , state whether its pIC50 is greater than or equal to 5. F

Textbook exercise: given the entry "CCN(CC)CCCCn1c(-c2c(N)n(C)c3nc(C#N)c(C#N)nc23)nc2ccccc21" , state whether its pIC50 is greater than or equal to 5. T

Textbook exercise: given the entry "CCN(CC)CCCCn1c(N)c(-c2nc3cc(Cl)ccc3[nH]2)c2nc(C#N)c(C#N)nc21" , state whether its pIC50 is greater than or equal to 5. T

Textbook exercise: given the entry "CN(C)CCCn1c(N)c(-c2nc3cc(Cl)ccc3[nH]2)c2nc(C#N)c(C#N)nc21" , state whether its pIC50 is greater than or equal to 5. F

Textbook exercise: given the entry "CN(C)CCCCn1c(-c2c(N)n(C)c3nc(C#N)c(C#N)nc23)nc2ccccc21" , state whether its pIC50 is greater than or equal to 5. T

* * *

biological target: DNA topoisomerase 2-alpha (Homo sapiens, UniProt P11388); assay: Inhibition of purified human topoisomerase 2-mediated relaxation of supercoiled pBR322 DNA at 50 uM incubated for 30 mins by agarose gel electrophoresis
Sequence (P11388 whole entry): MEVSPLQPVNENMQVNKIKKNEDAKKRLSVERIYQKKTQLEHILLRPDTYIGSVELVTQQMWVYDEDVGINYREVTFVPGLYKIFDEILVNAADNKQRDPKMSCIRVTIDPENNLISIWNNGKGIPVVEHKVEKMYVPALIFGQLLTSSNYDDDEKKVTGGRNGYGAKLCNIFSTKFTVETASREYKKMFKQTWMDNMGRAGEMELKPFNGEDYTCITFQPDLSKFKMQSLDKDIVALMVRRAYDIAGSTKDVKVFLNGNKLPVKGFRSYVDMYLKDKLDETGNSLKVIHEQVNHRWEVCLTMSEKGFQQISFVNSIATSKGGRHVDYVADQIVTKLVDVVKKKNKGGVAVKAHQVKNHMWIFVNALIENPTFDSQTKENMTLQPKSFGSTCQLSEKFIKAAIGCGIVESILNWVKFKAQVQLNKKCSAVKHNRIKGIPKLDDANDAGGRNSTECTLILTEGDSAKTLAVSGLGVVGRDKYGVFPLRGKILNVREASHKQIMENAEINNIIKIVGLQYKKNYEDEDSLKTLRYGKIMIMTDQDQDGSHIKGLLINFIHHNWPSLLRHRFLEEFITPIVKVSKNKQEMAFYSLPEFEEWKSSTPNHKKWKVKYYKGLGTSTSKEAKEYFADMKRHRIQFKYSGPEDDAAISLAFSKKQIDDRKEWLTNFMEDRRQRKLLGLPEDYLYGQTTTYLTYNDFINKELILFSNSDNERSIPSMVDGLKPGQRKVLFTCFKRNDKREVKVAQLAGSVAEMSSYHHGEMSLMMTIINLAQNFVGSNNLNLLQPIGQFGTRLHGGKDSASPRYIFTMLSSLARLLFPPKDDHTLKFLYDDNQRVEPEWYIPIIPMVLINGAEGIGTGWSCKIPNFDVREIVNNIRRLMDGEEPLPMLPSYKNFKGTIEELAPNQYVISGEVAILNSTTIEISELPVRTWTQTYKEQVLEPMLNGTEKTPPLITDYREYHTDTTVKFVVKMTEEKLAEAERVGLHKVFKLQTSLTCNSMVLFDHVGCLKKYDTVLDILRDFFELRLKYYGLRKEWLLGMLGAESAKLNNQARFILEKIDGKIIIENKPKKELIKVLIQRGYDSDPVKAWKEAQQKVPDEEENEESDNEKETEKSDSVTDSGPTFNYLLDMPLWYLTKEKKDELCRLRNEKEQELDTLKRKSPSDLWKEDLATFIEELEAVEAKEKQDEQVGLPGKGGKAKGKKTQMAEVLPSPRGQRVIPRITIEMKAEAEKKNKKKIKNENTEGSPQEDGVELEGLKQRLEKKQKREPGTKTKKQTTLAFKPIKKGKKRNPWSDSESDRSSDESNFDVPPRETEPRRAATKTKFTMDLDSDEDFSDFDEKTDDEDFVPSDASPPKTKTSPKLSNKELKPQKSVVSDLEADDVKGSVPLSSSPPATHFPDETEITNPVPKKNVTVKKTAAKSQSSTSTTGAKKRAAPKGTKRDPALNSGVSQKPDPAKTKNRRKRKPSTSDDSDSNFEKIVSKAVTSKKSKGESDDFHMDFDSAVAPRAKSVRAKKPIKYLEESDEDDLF
The source made the active and inactive calls. The rule behind the calls is not given here.
Use one of these outcomes when replying: active, inactive

Assay outcome for "CN1CCN(CCCn2c(N)c(-c3nc4ccccc4[nH]3)c3nc(C#N)c(C#N)nc32)CC1" : what was it? inactive

Assay outcome for "N#Cc1nc2c(-c3nc4ccccc4[nH]3)c(N)n(CCCN3CCOCC3)c2nc1C#N" : what was it? inactive

Assay outcome for "N#Cc1nc2c(-c3nc4ccccc4[nH]3)c(N)n(CCc3cc4ccccc4[nH]3)c2nc1C#N" : what was it? inactive

Assay outcome for "CCN(CC)CCn1c(N)c(-c2nc3ccccc3n2C)c2nc(C#N)c(C#N)nc21" : what was it? inactive

Assay outcome for "CCCCn1c(N)c(-c2nc3ccccc3[nH]2)c2nc(C#N)c(C#N)nc21" : what was it? inactive

Assay outcome for "N#Cc1nc2c(-c3nc4ccccc4[nH]3)c(N)n(CCO)c2nc1C#N" : what was it? inactive

Assay outcome for "CCN(CC)CCCn1c(N)c(-c2nc3cc(Cl)ccc3[nH]2)c2nc(C#N)c(C#N)nc21" : what was it? active

Assay outcome for "CCN(CC)CCn1c(N)c(-c2nc3ccccc3[nH]2)c2nc(C#N)c(C#N)nc21" : what was it? inactive

Assay outcome for "N#Cc1nc2c(-c3nc4ccccc4[nH]3)c(N)n(CCN3CCOCC3)c2nc1C#N" : what was it? inactive

Assay outcome for "CN(C)CCn1c(N)c(-c2nc3ccccc3n2C)c2nc(C#N)c(C#N)nc21" : what was it? inactive

Assay outcome for "CN(C)CCCn1c(N)c(-c2nc3cc(Cl)ccc3[nH]2)c2nc(C#N)c(C#N)nc21" : what was it? active

Assay outcome for "CCN(CC)CCn1c(N)c(-c2nc3cc(Cl)ccc3[nH]2)c2nc(C#N)c(C#N)nc21" : what was it? inactive

* * *

molecular target: DNA topoisomerase 1 (Homo sapiens) (UniProt P11387); assay: Inhibition of recombinant human topoisomerase 1-mediated relaxation of supercoiled pBR322 DNA at 50 uM incubated for 30 mins by agarose gel electrophoresis
Sequence (P11387 whole entry): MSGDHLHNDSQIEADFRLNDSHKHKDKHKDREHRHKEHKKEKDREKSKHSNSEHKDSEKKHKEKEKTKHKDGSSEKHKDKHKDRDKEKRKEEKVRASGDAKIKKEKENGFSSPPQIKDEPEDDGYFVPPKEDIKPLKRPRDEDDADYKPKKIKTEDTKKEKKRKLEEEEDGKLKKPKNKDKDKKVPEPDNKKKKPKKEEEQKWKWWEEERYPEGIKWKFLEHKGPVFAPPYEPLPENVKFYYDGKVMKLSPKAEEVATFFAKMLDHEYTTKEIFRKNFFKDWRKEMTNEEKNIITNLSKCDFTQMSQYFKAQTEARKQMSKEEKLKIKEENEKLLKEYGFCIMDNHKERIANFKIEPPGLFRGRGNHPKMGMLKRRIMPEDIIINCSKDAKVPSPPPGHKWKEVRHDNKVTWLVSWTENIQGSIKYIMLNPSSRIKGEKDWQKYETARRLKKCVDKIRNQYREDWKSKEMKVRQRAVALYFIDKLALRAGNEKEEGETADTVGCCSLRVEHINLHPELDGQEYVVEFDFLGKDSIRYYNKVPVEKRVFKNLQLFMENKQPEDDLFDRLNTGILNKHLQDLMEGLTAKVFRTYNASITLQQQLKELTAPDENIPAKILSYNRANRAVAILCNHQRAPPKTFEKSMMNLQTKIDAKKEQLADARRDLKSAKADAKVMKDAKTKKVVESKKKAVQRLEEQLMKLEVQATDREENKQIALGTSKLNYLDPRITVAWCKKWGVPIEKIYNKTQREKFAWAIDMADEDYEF
Active and inactive are the calls of the source. The rule behind the calls is not given here.

# Compound Structure String, inhibition
records = [
    ("CCCn1c(N)c(-c2nc3ccccc3[nH]2)c2nc(C#N)c(C#N)nc21", "inactive"),
    ("CN(C)CCCn1c(N)c(-c2nc3ccccc3[nH]2)c2nc(C#N)c(C#N)nc21", "inactive"),
    ("CCCCn1c(N)c(-c2nc3ccccc3[nH]2)c2nc(C#N)c(C#N)nc21", "inactive"),
]

* * *

biological target: DNA topoisomerase 2-alpha (Homo sapiens, UniProt P11388); test: Inhibition of purified human topoisomerase 2-mediated relaxation of supercoiled pBR322 DNA at 50 uM incubated for 30 mins by agarose gel electrophoresis
Activity calls are given as the source filed them. The rule behind the calls is not given here.
Use one of these outcomes when replying: 1 for active, -1 for inactive

Assay outcome for "Cn1c(N)c(-c2nc3ccccc3[nH]2)c2nc(C#N)c(C#N)nc21" : what was it? -1

Assay outcome for "CN(C)CCn1c(N)c(-c2nc3ccccc3[nH]2)c2nc(C#N)c(C#N)nc21" : what was it? -1

Assay outcome for "N#Cc1nc2c(-c3nc4ccccc4[nH]3)c(N)n(CCCO)c2nc1C#N" : what was it? -1

Assay outcome for "N#Cc1nc2c(-c3nc4ccccc4o3)c(N)n(CCCN3CCCCC3)c2nc1C#N" : what was it? -1

Assay outcome for "CN(C)CCCCn1c(N)c(-c2nc3cc(Cl)ccc3[nH]2)c2nc(C#N)c(C#N)nc21" : what was it? 1

Assay outcome for "N#Cc1nc2c(-c3nc4ccccc4[nH]3)c(N)n(CCc3ccccc3)c2nc1C#N" : what was it? -1

Assay outcome for "CCN(CC)CCCCn1c(N)c(-c2nc3cc(Cl)ccc3[nH]2)c2nc(C#N)c(C#N)nc21" : what was it? 1

Assay outcome for "CCCn1c(N)c(-c2nc3ccccc3[nH]2)c2nc(C#N)c(C#N)nc21" : what was it? -1

Assay outcome for "CN(C)CCn1c(N)c(-c2nc3ccccc3s2)c2nc(C#N)c(C#N)nc21" : what was it? -1

Assay outcome for "CN(C)CCCCn1c(N)c(C#N)c2nc(C#N)c(C#N)nc21" : what was it? -1

* * *

tested on: HEK293; experiment: Cytotoxicity against HEK293 cells after 48 hrs by MTT assay; format: cell-based; settings: Homo sapiens, HEK293, 48 h
For each of the compounds below, state its pIC50.
pIC50 is a log-scale quantity: -log10 of the concentration expressed in molar.

Using the record for "CN(C)CCCCn1c(N)c(-c2nc3cc(Cl)ccc3[nH]2)c2nc(C#N)c(C#N)nc21" , report its pIC50. 5.33

Using the record for "CN(C)CCCCn1c(N)c(-c2nc3ccccc3s2)c2nc(C#N)c(C#N)nc21" , report its pIC50. 5.27

Using the record for "CCN(CC)CCn1c(N)c(-c2nc3ccccc3n2C)c2nc(C#N)c(C#N)nc21" , report its pIC50. 4.60

Using the record for "CN(C)CCCCn1c(N)c(-c2nc3ccccc3n2C)c2nc(C#N)c(C#N)nc21" , report its pIC50. 5.41

Using the record for "CN(C)CCCCn1c(-c2c(N)n(C)c3nc(C#N)c(C#N)nc23)nc2ccccc21" , report its pIC50. 5.15

Using the record for "CCN(CC)CCCCn1c(N)c(-c2nc3ccccc3o2)c2nc(C#N)c(C#N)nc21" , report its pIC50. 5.40

* * *

system: A549; experiment: Antiproliferative activity against human A549 cells after 48 hrs by MTT assay; assay type: functional, cell-based; details: A549, 48 h
pIC50: −log10 of the molar value.
Would you mind labelling by pIC50? At or over 5 is 1.0, under is 0.0.

Textbook exercise: given the entry "CN(C)CCCCn1c(N)c(-c2nc3ccccc3s2)c2nc(C#N)c(C#N)nc21" , state whether its pIC50 is greater than or equal to 5. 0.0

Textbook exercise: given the entry "N#Cc1nc2c(-c3nc4ccccc4[nH]3)c(N)n(CCCN3CCOCC3)c2nc1C#N" , state whether its pIC50 is greater than or equal to 5. 0.0

Textbook exercise: given the entry "N#Cc1nc2c(-c3nc4ccccc4[nH]3)c(N)n(CCc3ccccc3)c2nc1C#N" , state whether its pIC50 is greater than or equal to 5. 0.0

Textbook exercise: given the entry "N#Cc1nc2c(-c3nc4ccccc4[nH]3)c(N)n(CCc3cc4ccccc4[nH]3)c2nc1C#N" , state whether its pIC50 is greater than or equal to 5. 0.0

Textbook exercise: given the entry "N#Cc1nc2c(-c3nc4ccccc4[nH]3)c(N)n(CCO)c2nc1C#N" , state whether its pIC50 is greater than or equal to 5. 0.0

Textbook exercise: given the entry "COc1ccc(CCn2c(N)c(-c3nc4ccccc4[nH]3)c3nc(C#N)c(C#N)nc32)cc1" , state whether its pIC50 is greater than or equal to 5. 0.0

Textbook exercise: given the entry "CCN(CC)CCn1c(N)c(-c2nc3ccccc3n2C)c2nc(C#N)c(C#N)nc21" , state whether its pIC50 is greater than or equal to 5. 0.0

Textbook exercise: given the entry "CCN(CC)CCCn1c(N)c(-c2nc3ccccc3[nH]2)c2nc(C#N)c(C#N)nc21" , state whether its pIC50 is greater than or equal to 5. 0.0

Textbook exercise: given the entry "CCCn1c(N)c(-c2nc3ccccc3[nH]2)c2nc(C#N)c(C#N)nc21" , state whether its pIC50 is greater than or equal to 5. 1.0

Textbook exercise: given the entry "CN(C)CCCCn1c(N)c(-c2nc3ccccc3o2)c2nc(C#N)c(C#N)nc21" , state whether its pIC50 is greater than or equal to 5. 1.0

Textbook exercise: given the entry "CCN(CC)CCn1c(N)c(-c2nc3ccccc3[nH]2)c2nc(C#N)c(C#N)nc21" , state whether its pIC50 is greater than or equal to 5. 0.0

Textbook exercise: given the entry "CCN(CC)CCCCn1c(N)c(-c2nc3ccccc3[nH]2)c2nc(C#N)c(C#N)nc21" , state whether its pIC50 is greater than or equal to 5. 1.0

Textbook exercise: given the entry COc1cc([C@@H]2c3cc4c(cc3[C@@H](O[C@@H]3O[C@@H]5CO[C@@H](C)O[C@H]5[C@H](O)[C@H]3O)[C@H]3COC(=O)[C@H]23)OCO4)cc(OC)c1O [ETOPOSIDE] , state whether its pIC50 is greater than or equal to 5. 1.0

Textbook exercise: given the entry "CN(C)CCCCn1c(N)c(-c2nc3ccccc3n2C)c2nc(C#N)c(C#N)nc21" , state whether its pIC50 is greater than or equal to 5. 1.0

Textbook exercise: given the entry "CCN(CC)CCn1c(N)c(-c2nc3cc(Cl)ccc3[nH]2)c2nc(C#N)c(C#N)nc21" , state whether its pIC50 is greater than or equal to 5. 0.0
